All figures here come from the supplement of paper PMC6757056.

B1: library; a variant is named by its letters at N, in order (parent)
chain: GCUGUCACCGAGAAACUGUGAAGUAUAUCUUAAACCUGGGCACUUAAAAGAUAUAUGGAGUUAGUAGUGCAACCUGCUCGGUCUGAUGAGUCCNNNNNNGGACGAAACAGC

Variants of: B1
Method Summary: normalized RNA/DNA level with ligand (relative to sTRSVctl = 100) (log10 (% of sTRSVctl)); HEK293T; ligand: cyclic di-GMP (c-di-GMP-II aptamer); ligand concentration (+) RNA-Seq: 1 mM; higher = less ribozyme self-cleavage, higher mRNA level
Assay Conditions: reporter: mCherry (pCS4076), ligand present: yes
Could you please report measured normalized RNA/DNA level with ligand (log10) for the items listed next?

Given item `CAGCCA` , the value recorded as its normalized RNA/DNA level with ligand (log10) is 1.67

Kindly note the recorded normalized RNA/DNA level with ligand (log10) for `GUAGAG` , which is 1.66

The variant listed as `AGUCUA` has a reported normalized RNA/DNA level with ligand (log10) of 1.77

normalized RNA/DNA level with ligand (log10) reading for `CGCGCU` : 1.83

Just so you know, measured normalized RNA/DNA level with ligand (log10) for `GUCAAU` came out at 1.78

`CCUGCG` has a reported normalized RNA/DNA level with ligand (log10) of 1.88

`CAGGCG` yielded normalized RNA/DNA level with ligand (log10) of 1.88

Entry `UUGAAU` ; normalized RNA/DNA level with ligand (log10) = 1.83

Lab book: normalized RNA/DNA level with ligand (log10) of `CAGGAU` noted as 1.78

Measured normalized RNA/DNA level with ligand (log10), `UACCUG` : 1.87

The recorded normalized RNA/DNA level with ligand (log10) for entry `GCCACG` equals 1.81

Lookup result for `GCAGGU` ; measured normalized RNA/DNA level with ligand (log10): 1.79

The variant listed as `GGACUC` has a reported normalized RNA/DNA level with ligand (log10) of 1.92

normalized RNA/DNA level with ligand (log10) reported for this variant `CCUAUG` : 1.7

Looking up `CACAAA` , I see its normalized RNA/DNA level with ligand (log10) listed as 1.46

Query `GUCUUA` yields normalized RNA/DNA level with ligand (log10) of 1.83

Measured normalized RNA/DNA level with ligand (log10) of `UGAUAU` : 1.82

normalized RNA/DNA level with ligand (log10) measured on `GCAGAU` = 1.6

Entry `CGUCAC` — recorded normalized RNA/DNA level with ligand (log10) = 1.78

Sample `UUCUAC` ; normalized RNA/DNA level with ligand (log10) observed: 1.9

Entry `CGGGUC` ; normalized RNA/DNA level with ligand (log10) = 1.9

Field normalized RNA/DNA level with ligand (log10) (entry `GAUAAG` ) reads 1.72
